- measurement-context: in methanol, 303.15 K
attribute-measured: solubility (mole fraction)

• COc1ccccc1OCCNCC(O)COc1cccc2[nH]c3ccccc3c12 (stereo unspecified) = 0.00149

----------
- measurement-context: in n-propanol, 303.15 K
attribute-measured: solubility (mole fraction)

* COc1ccccc1OCCNCC(O)COc1cccc2[nH]c3ccccc3c12 (stereo unspecified) | 0.00122

----------
- measurement-context: in acetone, 308.15 K
attribute-measured: solubility (mole fraction)

* COc1ccccc1OCCNCC(O)COc1cccc2[nH]c3ccccc3c12 (stereo unspecified) | 0.023

----------
- measurement-context: in methanol, 288.15 K
attribute-measured: solubility (mole fraction)

* COc1ccccc1OCCNCC(O)COc1cccc2[nH]c3ccccc3c12 (stereo unspecified) | 0.000767

----------
- measurement-context: in ethanol, 308.15 K
attribute-measured: solubility (mole fraction)

* COc1ccccc1OCCNCC(O)COc1cccc2[nH]c3ccccc3c12 (stereo unspecified) | 0.00158

----------
- measurement-context: in dichloromethane, 308.15 K
attribute-measured: solubility (mole fraction)

- COc1ccccc1OCCNCC(O)COc1cccc2[nH]c3ccccc3c12 (stereo unspecified): 0.00722

----------
- measurement-context: in n-butanol, 308.15 K
attribute-measured: solubility (mole fraction)

• COc1ccccc1OCCNCC(O)COc1cccc2[nH]c3ccccc3c12 (stereo unspecified) = 0.00125

----------
- measurement-context: in PEG-400, 288.15 K
attribute-measured: solubility (mole fraction)

- COc1ccccc1OCCNCC(O)COc1cccc2[nH]c3ccccc3c12 (stereo unspecified): 0.0501

----------
- measurement-context: in PEG-400, 303.15 K
attribute-measured: solubility (mole fraction)

* COc1ccccc1OCCNCC(O)COc1cccc2[nH]c3ccccc3c12 (stereo unspecified) | 0.062

----------
- measurement-context: in propylene glycol, 308.15 K
attribute-measured: solubility (mole fraction)

• COc1ccccc1OCCNCC(O)COc1cccc2[nH]c3ccccc3c12 (stereo unspecified) = 0.00213

----------
- measurement-context: in THF, 288.15 K
attribute-measured: solubility (mole fraction)

- COc1ccccc1OCCNCC(O)COc1cccc2[nH]c3ccccc3c12 (stereo unspecified): 0.0211

----------
- measurement-context: in ethyl acetate, 293.15 K
attribute-measured: solubility (mole fraction)

• COc1ccccc1OCCNCC(O)COc1cccc2[nH]c3ccccc3c12 (stereo unspecified) = 0.00189

----------
- measurement-context: in n-propanol, 293.15 K
attribute-measured: solubility (mole fraction)

* COc1ccccc1OCCNCC(O)COc1cccc2[nH]c3ccccc3c12 (stereo unspecified) | 0.000791

----------
- measurement-context: in isopropanol, 298.15 K
attribute-measured: solubility (mole fraction)

* COc1ccccc1OCCNCC(O)COc1cccc2[nH]c3ccccc3c12 (stereo unspecified) | 0.000726

----------
- measurement-context: in acetone, 298.15 K
attribute-measured: solubility (mole fraction)

- COc1ccccc1OCCNCC(O)COc1cccc2[nH]c3ccccc3c12 (stereo unspecified): 0.0173

----------
- measurement-context: in n-butanol, 293.15 K
attribute-measured: solubility (mole fraction)

• COc1ccccc1OCCNCC(O)COc1cccc2[nH]c3ccccc3c12 (stereo unspecified) = 0.00079

----------
- measurement-context: in propylene glycol, 303.15 K
attribute-measured: solubility (mole fraction)

* COc1ccccc1OCCNCC(O)COc1cccc2[nH]c3ccccc3c12 (stereo unspecified) | 0.00193

----------
- measurement-context: in isopropanol, 303.15 K
attribute-measured: solubility (mole fraction)

- COc1ccccc1OCCNCC(O)COc1cccc2[nH]c3ccccc3c12 (stereo unspecified): 0.000947

----------
- measurement-context: in THF, 293.15 K
attribute-measured: solubility (mole fraction)

* COc1ccccc1OCCNCC(O)COc1cccc2[nH]c3ccccc3c12 (stereo unspecified) | 0.0235

----------
- measurement-context: in n-butanol, 288.15 K
attribute-measured: solubility (mole fraction)

* COc1ccccc1OCCNCC(O)COc1cccc2[nH]c3ccccc3c12 (stereo unspecified) | 0.000678

----------
- measurement-context: in isopropanol, 308.15 K
attribute-measured: solubility (mole fraction)

• COc1ccccc1OCCNCC(O)COc1cccc2[nH]c3ccccc3c12 (stereo unspecified) = 0.00124

----------
- measurement-context: in ethyl acetate, 288.15 K
attribute-measured: solubility (mole fraction)

• COc1ccccc1OCCNCC(O)COc1cccc2[nH]c3ccccc3c12 (stereo unspecified) = 0.0015

----------
- measurement-context: in THF, 298.15 K
attribute-measured: solubility (mole fraction)

• COc1ccccc1OCCNCC(O)COc1cccc2[nH]c3ccccc3c12 (stereo unspecified) = 0.0261

----------
- measurement-context: in PEG-400, 293.15 K
attribute-measured: solubility (mole fraction)

* COc1ccccc1OCCNCC(O)COc1cccc2[nH]c3ccccc3c12 (stereo unspecified) | 0.0539

----------
- measurement-context: in glycerin, 293.15 K
attribute-measured: solubility (mole fraction)

• COc1ccccc1OCCNCC(O)COc1cccc2[nH]c3ccccc3c12 (stereo unspecified) = 0.000307

----------
- measurement-context: in n-butanol, 303.15 K
attribute-measured: solubility (mole fraction)

- COc1ccccc1OCCNCC(O)COc1cccc2[nH]c3ccccc3c12 (stereo unspecified): 0.00108

----------
- measurement-context: in ethanol, 288.15 K
attribute-measured: solubility (mole fraction)

- COc1ccccc1OCCNCC(O)COc1cccc2[nH]c3ccccc3c12 (stereo unspecified): 0.000677

----------
- measurement-context: in dichloromethane, 288.15 K
attribute-measured: solubility (mole fraction)

• COc1ccccc1OCCNCC(O)COc1cccc2[nH]c3ccccc3c12 (stereo unspecified) = 0.00254

----------
- measurement-context: in methanol, 293.15 K
attribute-measured: solubility (mole fraction)

• COc1ccccc1OCCNCC(O)COc1cccc2[nH]c3ccccc3c12 (stereo unspecified) = 0.000959

----------
- measurement-context: in glycerin, 298.15 K
attribute-measured: solubility (mole fraction)

• COc1ccccc1OCCNCC(O)COc1cccc2[nH]c3ccccc3c12 (stereo unspecified) = 0.000342

----------
- measurement-context: in glycerin, 303.15 K
attribute-measured: solubility (mole fraction)

• COc1ccccc1OCCNCC(O)COc1cccc2[nH]c3ccccc3c12 (stereo unspecified) = 0.00038

----------
- measurement-context: in isopropanol, 293.15 K
attribute-measured: solubility (mole fraction)

• COc1ccccc1OCCNCC(O)COc1cccc2[nH]c3ccccc3c12 (stereo unspecified) = 0.000555

----------
- measurement-context: in dichloromethane, 293.15 K
attribute-measured: solubility (mole fraction)

• COc1ccccc1OCCNCC(O)COc1cccc2[nH]c3ccccc3c12 (stereo unspecified) = 0.00334

----------
- measurement-context: in THF, 303.15 K
attribute-measured: solubility (mole fraction)

- COc1ccccc1OCCNCC(O)COc1cccc2[nH]c3ccccc3c12 (stereo unspecified): 0.0291

----------
- measurement-context: in ethanol, 293.15 K
attribute-measured: solubility (mole fraction)

- COc1ccccc1OCCNCC(O)COc1cccc2[nH]c3ccccc3c12 (stereo unspecified): 0.000846

----------
- measurement-context: in methanol, 308.15 K
attribute-measured: solubility (mole fraction)

- COc1ccccc1OCCNCC(O)COc1cccc2[nH]c3ccccc3c12 (stereo unspecified): 0.00185

----------
- measurement-context: in THF, 308.15 K
attribute-measured: solubility (mole fraction)

- COc1ccccc1OCCNCC(O)COc1cccc2[nH]c3ccccc3c12 (stereo unspecified): 0.0321

----------
- measurement-context: in n-propanol, 298.15 K
attribute-measured: solubility (mole fraction)

• COc1ccccc1OCCNCC(O)COc1cccc2[nH]c3ccccc3c12 (stereo unspecified) = 0.000996

----------
- measurement-context: in propylene glycol, 288.15 K
attribute-measured: solubility (mole fraction)

• COc1ccccc1OCCNCC(O)COc1cccc2[nH]c3ccccc3c12 (stereo unspecified) = 0.00138

----------
- measurement-context: in propylene glycol, 298.15 K
attribute-measured: solubility (mole fraction)

- COc1ccccc1OCCNCC(O)COc1cccc2[nH]c3ccccc3c12 (stereo unspecified): 0.00174

----------
- measurement-context: in ethyl acetate, 308.15 K
attribute-measured: solubility (mole fraction)

• COc1ccccc1OCCNCC(O)COc1cccc2[nH]c3ccccc3c12 (stereo unspecified) = 0.00362

----------
- measurement-context: in acetone, 293.15 K
attribute-measured: solubility (mole fraction)

* COc1ccccc1OCCNCC(O)COc1cccc2[nH]c3ccccc3c12 (stereo unspecified) | 0.0147

----------
- measurement-context: in ethyl acetate, 298.15 K
attribute-measured: solubility (mole fraction)

- COc1ccccc1OCCNCC(O)COc1cccc2[nH]c3ccccc3c12 (stereo unspecified): 0.00239

----------
- measurement-context: in acetone, 303.15 K
attribute-measured: solubility (mole fraction)

• COc1ccccc1OCCNCC(O)COc1cccc2[nH]c3ccccc3c12 (stereo unspecified) = 0.0201

----------
- measurement-context: in methanol, 298.15 K
attribute-measured: solubility (mole fraction)

• COc1ccccc1OCCNCC(O)COc1cccc2[nH]c3ccccc3c12 (stereo unspecified) = 0.0012

----------
- measurement-context: in acetone, 288.15 K
attribute-measured: solubility (mole fraction)

* COc1ccccc1OCCNCC(O)COc1cccc2[nH]c3ccccc3c12 (stereo unspecified) | 0.0125
